Target: T1, recombinant human GREM1 (hGREM1-His; C-terminal 10His tagged, R&D, #5190-GR) (human, UniProt O60565 25-184)
T1 construct: range 25-184; also called recombinant human GREM1 with a C-terminal decahistidine tag
T1 sequence: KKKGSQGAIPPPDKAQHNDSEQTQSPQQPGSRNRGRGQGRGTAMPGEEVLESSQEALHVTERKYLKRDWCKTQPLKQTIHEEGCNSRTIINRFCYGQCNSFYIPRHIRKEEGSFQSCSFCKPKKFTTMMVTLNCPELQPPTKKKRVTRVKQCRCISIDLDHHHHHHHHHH
Assay: BLI Octet, mAb captured, 100 nM GREM1;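 further: octet Red96 biolayer interferometry at 25 °C in pH 7.4 HEPES saline buffer, antibodies held on anti-human IgG Fc capture biosensors, then exposed to GREM1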
Assignment: determine reported Binding Signal with 30 sec Association for the given binders.
Numbers only, in nm.

H4H6250P (antibody, human IgG4, V domains shown, H4H prefix = human IgG4 Fc) VH: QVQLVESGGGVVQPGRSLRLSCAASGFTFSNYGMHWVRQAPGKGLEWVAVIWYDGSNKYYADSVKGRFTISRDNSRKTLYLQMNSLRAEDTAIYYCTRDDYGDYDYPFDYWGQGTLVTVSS VL: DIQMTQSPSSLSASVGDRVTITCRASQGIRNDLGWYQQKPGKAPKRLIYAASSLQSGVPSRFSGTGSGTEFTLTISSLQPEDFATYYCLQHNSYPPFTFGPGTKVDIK = 0.2
H4H6251P (antibody, human IgG4, V domains shown, H4H prefix = human IgG4 Fc) VH: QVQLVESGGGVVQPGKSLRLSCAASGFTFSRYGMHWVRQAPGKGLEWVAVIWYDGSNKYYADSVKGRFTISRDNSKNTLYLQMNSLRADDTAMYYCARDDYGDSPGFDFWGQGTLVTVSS VL: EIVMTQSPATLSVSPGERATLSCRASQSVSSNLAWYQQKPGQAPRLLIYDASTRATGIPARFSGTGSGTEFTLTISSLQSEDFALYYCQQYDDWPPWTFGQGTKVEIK = 0.27
H4H6232P (antibody, human IgG4, V domains shown, H4H prefix = human IgG4 Fc) VH: QVQLVQSGAEVKKPGASVKVSCKVSGYTLTELSMHWVRQAPGKGLEWMGGFDPEDGETIYAQKFQGRLTMTEDTSTDTAYMELSSLRSEDTAVYYCATDDYDILTSYPYNMDVWGQGTTVTVSS VL: DIQMTQSPSSLSASVGDRVTITCRASQSINNYLNWYQQKPGKAPKLLIYAASSLQSGVPSRFSGSGSGTDFTLTISSLQPEDFGTYYCQQSDSTPFTFGPGTKVDIK = 0.33
H4H2780N (antibody, human IgG4, V domains shown, H4H prefix = human IgG4 Fc) VH: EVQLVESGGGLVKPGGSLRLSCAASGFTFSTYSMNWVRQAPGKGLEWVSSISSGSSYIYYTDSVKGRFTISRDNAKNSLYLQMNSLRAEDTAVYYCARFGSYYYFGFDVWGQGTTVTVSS VL: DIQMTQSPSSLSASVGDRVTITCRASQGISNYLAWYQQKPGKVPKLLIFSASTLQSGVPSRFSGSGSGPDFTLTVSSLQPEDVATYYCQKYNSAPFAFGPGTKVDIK = 0.13
H4H6260P (antibody, human IgG4, V domains shown, H4H prefix = human IgG4 Fc) VH: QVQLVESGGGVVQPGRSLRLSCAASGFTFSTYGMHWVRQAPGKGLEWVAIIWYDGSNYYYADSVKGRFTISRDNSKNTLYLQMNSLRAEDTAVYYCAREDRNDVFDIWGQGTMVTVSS VL: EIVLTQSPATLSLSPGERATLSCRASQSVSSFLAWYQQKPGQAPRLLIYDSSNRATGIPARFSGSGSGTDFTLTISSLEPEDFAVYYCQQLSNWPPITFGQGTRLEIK = 0.24
H4H6233P (antibody, human IgG4, V domains shown, H4H prefix = human IgG4 Fc) VH: QVQLVESGGGVVQPGRSLRLSCAASGFTFSSYGMHWVRQAPGKGLEWVAVIWYDGSNYYYAASVKGRFTISRDNSENTLYLQMNRLRAEDTAVYYCAREGTGSTEDYFDYWGQGTLVTVSS VL: EIVLTQSPATLSLSPGERATLSCRASQSVSSFLAWYQQKPGQAPRLLIYDASNRATGIPVRFSGSGSGTDFTLTISSLEPEDFAVYYCQQRSNWPPYTFGQGTKLEIK = 0.19

Okay, now this binder:
Prompt line: Requested field: Binding Signal with 30 sec Association. Item: H4H6270P (antibody, human IgG4, V domains shown, H4H prefix = human IgG4 Fc) VH: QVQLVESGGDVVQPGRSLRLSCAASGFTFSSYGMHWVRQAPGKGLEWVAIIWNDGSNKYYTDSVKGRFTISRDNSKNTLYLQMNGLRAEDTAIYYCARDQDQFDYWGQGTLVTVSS VL: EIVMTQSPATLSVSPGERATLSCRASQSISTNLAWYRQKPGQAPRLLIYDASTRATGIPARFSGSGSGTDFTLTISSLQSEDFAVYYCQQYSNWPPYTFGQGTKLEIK
Response line: 0.2
